System: 786-0
Experiment: NCI tumour cell line growth inhibition, 48 h
Calls of active or inactive are those of the source. Rule as the data show it: active = GI50 up to about 1.1 µM and inactive = higher.
Just give me one of these, please: True (active), False (inactive)

// below: answered compounds
compound: COc1cc(OC)c2nc(C)c3c(c2c1)NCC3
experimental-system: 786-0
cat: False
//
compound: Cc1cc(O)c(C(C)C)cc1C1(c2cc(C(C)C)c(O)cc2C)OC(=O)c2ccccc21
experimental-system: 786-0
cat: False
//
compound: O=S(=O)(c1ccccc1)n1cc(C[P+](c2ccccc2)(c2ccccc2)c2ccccc2)c2ccccc21
experimental-system: 786-0
cat: False
//
compound: COC1(C)CP(=O)(OC(C)C)CC(C)=C1Cl (stereo unspecified)
experimental-system: 786-0
cat: False

Qu. Assay outcome for "O=c1[nH]n2c(=O)cc[nH]c2c1-c1nnns1" : what was it?
Ans. False

Qu. Assay outcome for "Cc1c(C(=O)/C=C/c2ccc([N+](=O)[O-])cc2)[n+]([O-])c2ccccc2[n+]1[O-]" : what was it?
Ans. False

Qu. Assay outcome for CC(=O)OC(CN1CCN(c2ccccn2)CC1)Cn1sc2nc(C)cc(C)c2c1=O (stereo unspecified) : what was it?
Ans. False

Qu. Assay outcome for CN1C(=O)CC2(C)c3cc(O)ccc3N(C)C12 (stereo unspecified) : what was it?
Ans. False

Qu. Assay outcome for "O=C(CCc1cc(O)cc(O)c1)NCCc1ccc(O)c(O)c1" : what was it?
Ans. False

Qu. Assay outcome for COc1cccc(/C=C/C(=O)N2CC(CCl)c3c2cc(N)c2ccccc32)c1 (stereo unspecified) : what was it?
Ans. True

Qu. Assay outcome for "CCOC(=O)c1ccc(C(=O)/C(C#N)=C2\CCCN2)n1C" : what was it?
Ans. False

Qu. Assay outcome for "COc1ccccc1/C=C(\C#N)C(=O)c1ccccc1" : what was it?
Ans. False

Qu. Assay outcome for COC(=O)/C=C/C(=O)C1C(C(=O)OC)C2(C(=O)OC)CCC1(C(=O)OC)N2 (stereo unspecified) : what was it?
Ans. False

Qu. Assay outcome for "Cn1c(-c2ccc(-c3cc(-c4cccs4)c(-c4cccs4)n3C)cc2)cc(-c2cccs2)c1-c1cccs1" : what was it?
Ans. False

Qu. Assay outcome for "C=CS(=O)(=O)CCN1CC1" : what was it?
Ans. False

Qu. Assay outcome for "CCCCCCCCC(=O)NCCN(CCN)C(=O)CCCCCCCC" : what was it?
Ans. False

* * *

System: OVCAR-8
Test: NCI tumour cell line growth inhibition, 48 h
Calls of active or inactive are those of the source. Cut-off read from the data, not from the text of the source: active = GI50 up to about 1.1 µM and inactive = higher.
measure-name: GI50

// worked examples, GI50 included
compound: COC(=O)c1ccccc1C1CN=NC12Cc1cc(C)c(C)cc1C2=O (stereo not drawn)
experimental-system: OVCAR-8
measure-name: GI50
assay-value: 54.6 µM (inactive)
//
compound: O=C(O)/C(=C\c1ccncc1)c1cccc2ccccc12
experimental-system: OVCAR-8
measure-name: GI50
assay-value: > 100 µM (inactive)
//
compound: C/C(=N/NS(=O)(=O)c1ccc([N+](=O)[O-])cc1)c1cccc[n+]1[O-]
experimental-system: OVCAR-8
measure-name: GI50
assay-value: > 100 µM (inactive)
//
compound: COC1CC(OC2CCC3(C)C(=CCC4C3C(OC(C)=O)C(OC(=O)CC(C)C)C3(C)C(C(C)=O)CCC43O)C2)OC(C)C1OC1CC(OC)C(OC2CC(OC)C(OC3OC(C)C(O)C(OC)C3O)C(C)O2)C(C)O1 (stereo not drawn)
experimental-system: OVCAR-8
measure-name: GI50
assay-value: 29.2 µM (inactive)
//
compound: CCCCCCOC(=O)C(N)Cc1ccc(OC)cc1 (stereo not drawn)
experimental-system: OVCAR-8
measure-name: GI50
assay-value: > 100 µM (inactive)

Below are 2 compounds. Give each one its GI50.
1. COC1(CC[C@H](C)COC2OC(CO)C(O)C(O)C2O)O[C@H]2C[C@H]3[C@@H]4CC=C5C[C@@H](OC6OC(CO)C(OC7OC(C)C(O)C(O)C7O)C(O)C6OC6OC(C)C(O)C(O)C6O)CC[C@]5(C)[C@H]4CC[C@]3(C)[C@H]2[C@@H]1C (stereo partly drawn)
2. CCCc1nc(N)nc(C(=O)Nc2cccc(C(F)(F)F)c2)c1CC

Ans.
1: 3.37 µM (inactive); 2: > 100 µM (inactive)

Qu. For the compound "CC(C)c1cc(=O)[nH]c2cc(N)ccc12" , what GI50 is on record?
Ans. > 100 µM (inactive)

* * *

System: MDA-N
Experiment: NCI tumour cell line growth inhibition, 48 h
Active and inactive are the calls of the source. Rule as the data show it: active = GI50 up to about 1.1 µM and inactive = higher.
Just give me one of these, please: active, inactive

compound: Cc1ccc(/N=C2\C(=O)C3=C(OC(C)(C)CC3)c3ccccc32)cc1
cat: active
//
compound: O=C1CCCC2=C1C(c1ccc3c(c1)OCO3)Nc1ccc3ccccc3c12 (stereo unspecified)
cat: inactive
//
compound: C=C1c2nc3ccccc3n2C=C(c2ccccc2)N1c1ccc([N+](=O)[O-])cc1
cat: inactive
//
compound: CC(C#N)N(CCc1ccccc1)C(=O)c1ccccc1 (stereo unspecified)
cat: inactive
//
compound: O=C(CCCn1ccnc1[N+](=O)[O-])NCCn1cnc([N+](=O)[O-])c1
cat: inactive
//
compound: Cn1ccc(C(=O)NCCCCCNC(=O)c2ccn(C)c(=O)c2O)c(O)c1=O
cat: inactive
//
compound: NNC(=O)c1nn[nH]c1SSc1[nH]nnc1C(=O)NN
cat: inactive
//
compound: COC1(CC[C@H](C)COC2OC(CO)C(O)C(O)C2O)O[C@H]2C[C@H]3[C@@H]4CC=C5C[C@@H](OC6OC(CO)C(OC7OC(C)C(O)C(O)C7O)C(O)C6OC6OC(C)C(O)C(O)C6O)CC[C@]5(C)[C@H]4CC[C@]3(C)[C@H]2[C@@H]1C (stereo partly specified)
cat: inactive
//
compound: CN1CCN(C(=S)N(C(=O)c2ccc(Cl)cc2)c2ccccc2)CC1
cat: inactive
//
compound: COc1cc(Cc2nccc3cc(OC)c(OC)cc23)c(C(C)=O)cc1OC
cat: inactive

Now let's try a different one.
Qu. Assay outcome for "Cc1ccc(S(=O)(=O)N2CCCSCC2)cc1" : what was it?
Ans. inactive

* * *

Test system: A549
Assay: NCI tumour cell line growth inhibition, 48 h
The source made the active and inactive calls. No stated cut-off is given here; in the data, active = GI50 up to about 1.1 µM and inactive = higher.
measure-name: GI50

// worked examples, GI50 included
compound: O=C(OCCOCBr)c1ccccc1
GI50: > 100 µM (inactive)
//
compound: O=c1c2c(nc3n1CCC3)sc1c(O)c(Br)ccc12
GI50: 15.4 µM (inactive)
//
compound: CCOc1ccccc1/N=N/C1C(=O)N(C(=O)CC(=O)Nc2ccccc2C)N=C1C (stereo unspecified)
GI50: 89.7 µM (inactive)
//
compound: Clc1cc(C(c2cc(Cl)sc2Cl)c2cc(Cl)sc2Cl)c(Cl)s1
GI50: > 100 µM (inactive)
//
compound: O=c1[nH]c(=O)n(C/C=C/CBr)nc1Br
GI50: 15.8 µM (inactive)

Below are 6 compounds. Give each one its GI50.
1. COc1ccc(OC/C(N)=N/NC(=O)c2ccncc2)cc1
2. CCOc1c(/N=N/c2ccccc2Cl)c(-c2ccccc2)nn1C(=S)S
3. CCOC(=O)c1cc(=O)oc2c1N(C)c1ncccc1N2
4. Cc1cc2cc3c(Cl)c(CCCl)c(C)nc3cc2c(Cl)c1CCCl
5. CC(=O)O[C@]1(C)CCC2C(C)C(=O)OC2C2C(C)[C@@H](O)CC21 (stereo partly specified)
6. Cc1c(N(Cc2ccccc2)Cc2ccccc2)nc(S(C)(=O)=O)nc1S(C)(=O)=O

Ans.
["> 100 µM (inactive)", "33.2 µM (inactive)", "> 100 µM (inactive)", "17.8 µM (inactive)", "52.7 µM (inactive)", "15.3 µM (inactive)"]

* * *

Give GI50 for every item shown.
System: COLO 205
Assay: NCI tumour cell line growth inhibition, 48 h
Calls of active or inactive are those of the source. Cut-off read from the data, not from the text of the source: active = GI50 up to about 1.1 µM and inactive = higher.

compound: CCOC(=O)c1ccc(C(=O)/C(C#N)=C2\CCCN2)n1C
assay-value: > 100 µM (inactive)

compound: NC1CCCCC1.O=P(O)(O)C(O)/C=C/c1ccccc1 (stereo not drawn)
assay-value: > 100 µM (inactive)

Qu. For the compound NC1=NCN(C2OC(CO)C(O)C2O)C(=O)N1 (stereo not drawn) , what GI50 is on record?
Ans. 131 µM (inactive)

* * *

System: SR
Test: NCI tumour cell line growth inhibition, 48 h
The source made the active and inactive calls. Cut-off read from the data, not from the text of the source: active = GI50 up to about 1.1 µM and inactive = higher.
measure-name: GI50

// worked examples, GI50 included
compound: Cc1ccc(/C=N/C23CC4CC(CC(C4)C2)C3)cc1
experimental-system: SR
GI50: > 100 µM (inactive)
//
compound: NCCCCNc1ccc2c(=O)[nH][nH]c(=O)c2c1
experimental-system: SR
GI50: > 100 µM (inactive)
//
compound: Cc1ccc(C(=O)Nc2ccc(CP(=O)(O)O)cc2CP(=O)(O)O)cc1N
experimental-system: SR
GI50: > 100 µM (inactive)
//
compound: O=S(=O)(c1ccccc1)n1cc(C[P+](c2ccccc2)(c2ccccc2)c2ccccc2)c2ccccc21
experimental-system: SR
GI50: 5.2 µM (inactive)
//
compound: O=C1NC(=S)N(c2cccc3ccccc23)C(=O)/C1=C/c1c[nH]c2ccccc12
experimental-system: SR
GI50: 1.41 µM (inactive)
//
compound: CCOC(=O)/C=C(/OCC)[C@@H]1C(C(=O)c2ccc(Cl)cc2)[C@@H]1/C(=C\C(=O)OCC)OCC (some centres undefined)
experimental-system: SR
GI50: 17.7 µM (inactive)
//
compound: NC1C2C(CC(=O)O)OCC=C3CN4CCC1(C(=O)C(=O)O)C4CC32 (centres undefined)
experimental-system: SR
GI50: > 100 µM (inactive)
//
compound: COc1cc(OC)c(/C=C2\N=C(C)N(Nc3nnc(NN4C(=O)/C(=C/c5c(OC)cc(OC)cc5OC)N=C4C)c4ccccc34)C2=O)c(OC)c1
experimental-system: SR
GI50: > 100 µM (inactive)

Consider the additional compound presented here.
Qu. For the compound COC1(C)/C=N/CC(C)(C)NC(=O)C(C)(OC)/C=N/CC(C)(C)NC1=O (centres undefined) , what GI50 is on record?
Ans. > 10 µM (inactive)
